- assayed.system: FXR receptor (Homo sapiens, UniProt Q96RI1)
- Construct: expressed in transfected cells; host or cells: 293T cells
- test: FXR activity at the cell level (FXRE luciferase reporter in 293T cells)
- Type: cell-based
- measurement.parameters: 10 μM, 293T cells, luciferase reporter, relative to OCA
recorded.metric: Activity relative to OCA (%) 10 μM

O=c1[nH]c(-c2ccc(N3C4CCC3CC(OCc3c(-c5c(F)cccc5F)noc3C3CC3)C4)nc2)no1 (stereo not shown) [Example 31] = 116
O=c1[nH]c(-c2ccc(N3CCC(OCc4c(-c5c(Cl)cccc5Cl)noc4C4CC4)CC3)nc2)no1 [Example 13] = 111

[I] O=c1[nH]c(-c2ccc(N3CCC(OCc4c(-c5c(Cl)cccc5Cl)noc4C4CC4)CC3)cc2)no1 [Example 2]
[II] O=c1[nH]c(-c2ccc(N3CCC(OCc4c(-c5ccccc5C(F)(F)F)noc4C4CC4)CC3)nc2)no1 [Example 21]
Prompt line: Among I and II , whose measured Activity relative to OCA (%) 10 μM is the smaller figure? Select an item and report its label.
Response line: II

---

- assayed.system: FXR receptor (Homo sapiens, UniProt Q96RI1)
- Construct: expressed in transfected cells; host or cells: 293T cells
- Sequence (Q96RI1 1-486): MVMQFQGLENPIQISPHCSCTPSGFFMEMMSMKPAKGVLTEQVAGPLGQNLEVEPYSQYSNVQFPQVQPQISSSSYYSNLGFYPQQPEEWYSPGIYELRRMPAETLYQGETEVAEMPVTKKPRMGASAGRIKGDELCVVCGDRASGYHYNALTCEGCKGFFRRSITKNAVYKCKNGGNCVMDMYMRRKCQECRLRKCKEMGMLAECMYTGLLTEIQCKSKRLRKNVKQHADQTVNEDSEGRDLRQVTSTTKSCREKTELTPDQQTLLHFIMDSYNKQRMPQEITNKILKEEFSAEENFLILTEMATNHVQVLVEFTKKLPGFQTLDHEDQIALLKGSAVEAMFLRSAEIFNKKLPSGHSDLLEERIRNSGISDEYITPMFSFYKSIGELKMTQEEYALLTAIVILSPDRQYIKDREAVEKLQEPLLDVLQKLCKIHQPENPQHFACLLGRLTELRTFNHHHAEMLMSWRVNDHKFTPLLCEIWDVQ
- test: FXR activity at the cell level (FXRE luciferase reporter in 293T cells)
- Format: cell-based
- measurement.parameters: 10 μM, 293T cells, luciferase reporter, relative to OCA
recorded.metric: Activity relative to OCA (%) 10 μM

O=c1[nH]c(-c2ccc(N3C4CCC3CC(OCc3c(-c5c(Cl)cccc5Cl)noc3C3CC3)C4)cc2F)no1 (stereo not shown) [Example 36] = 102
O=c1[nH]c(-c2ccc(N3CCC(OCc4c(-c5ccccc5OC(F)(F)F)noc4C4CC4)CC3)nc2)no1 [Example 26] = 103
O=c1[nH]c(-c2ccc(N3CCC(OCc4c(-c5ccccc5OC(F)(F)F)noc4C4CC4)CC3)c(F)c2)no1 [Example 28] = 107
O=c1[nH]c(-c2ccc(N3C4CCC3CC(OCc3c(-c5c(Cl)cccc5Cl)noc3C3CC3)C4)cc2)no1 (stereo not shown) [Example 7] = 88

---

- assayed.system: FXR receptor (Homo sapiens, UniProt Q96RI1)
- Construct: expressed in transfected cells; host or cells: 293T cells
- test: FXR activity at the cell level (FXRE luciferase reporter in 293T cells)
- Assay type: cell-based
- measurement.parameters: 10 μM, 293T cells, luciferase reporter, relative to OCA
- Procedure: The cells were cultured for 24 hours to ensure plasmid expression. Then the FXR receptor agonist to be tested was added and acted for 18 hours. The fluorescence intensity was detected using luciferase kit (steady-Glo Luciferase Assay system) to reflect the compound's activation efficiency on the FXR receptor. […] The appropriate concentration interval was selected, and the dose-dependent relationship, that is, the EC50 value, was calculated.
recorded.metric: Activity relative to OCA (%) 10 μM

O=c1[nH]c(-c2ccc(N3CCC(OCc4c(-c5ccccc5OC(F)(F)F)noc4C4CC4)CC3)cc2F)no1 [Example 29] = 120
O=c1[nH]c(-c2ccc(N3C4CCC3CC(OCc3c(-c5ccccc5OC(F)(F)F)noc3C3CC3)C4)nc2)no1 (stereo not shown) [Example 34] = 122

[P] O=c1[nH]c(-c2c(F)cc(N3CCC(OCc4c(-c5c(Cl)cccc5Cl)noc4C4CC4)CC3)cc2F)no1 [Example 17]
[Q] O=c1[nH]c(-c2ccc(N3CCCC(OCc4c(-c5c(Cl)cccc5Cl)noc4C4CC4)CC3)cc2)no1 (stereo not shown) [Example 4]
Prompt line: Looking only at measured Activity relative to OCA (%) 10 μM, which entry is lower, P or Q ? In your reply, give the label of the chosen option.
Response line: Q
(Q: 97%, P: 161%)
